# Tested on: Klebsiella aerogenes DSM 30053
# test: growth (OD595) fold change vs plate DMSO controls (fold change (ratio)); higher = more growth
# settings: incubation time: 27 h, anaerobic, 37 °C
Exercise: for every item that follows, state its recorded growth.

Output reported growth of the molecule CCN[C@H]1CN(CCCOC)S(=O)(=O)c2sc(S(N)(=O)=O)cc21 [Brinzolamide] (20 µM) on Klebsiella aerogenes DSM 30053.
1

Output reported growth of the molecule C[C@]12C[C@H](O)[C@H]3[C@@H](CCC4=CC(=O)CC[C@@]43C)[C@@H]1CC[C@@H]2C(=O)CO [Corticosterone] (20 µM) on Klebsiella aerogenes DSM 30053.
1.07

Output reported growth of the molecule CC(=O)Oc1ccccc1C(=O)Nc1ncc([N+](=O)[O-])s1 [Nitazoxanide] (20 µM) on Klebsiella aerogenes DSM 30053.
0.915

Output reported growth of the molecule Cc1cc2nc3ccc(=[N+](C)C)cc-3sc2cc1N [Tolonium chloride] (20 µM) on Klebsiella aerogenes DSM 30053.
0.55
